Data credit: ChEMBL document CHEMBL1687773

Test system: Human immunodeficiency virus 1
Experiment: Antiviral activity against HIV1 NL4-3 infected in human SupT1 cells derived from 11 viral passages assessed as inhibition of viral replication after 21 days relative to drug sensitive HIV1 NL4-3
Assay type: functional, SUP-T1
readout_kind: fold change (FC)
Give a plain numeric answer without units written out.

Q: Return reported fold change (FC); argument: CC(C)Nc1cccnc1N1CCN(C(=O)c2cc3cc(NS(C)(=O)=O)ccc3[nH]2)CC1 [DELAVIRDINE]
Ans: 0.3

Q: Any idea what its fold change (FC) is? The molecule is Cc1ccnc2c1NC(=O)c1cccnc1N2C1CC1 [NEVIRAPINE]
Ans: 0.2

Q: Which fold change (FC) is reported for this molecule? CCc1nn(CCO)c(CC)c1Oc1cc(C#N)cc(C#N)c1 [LERSIVIRINE]
Ans: 0.6

Q: Bench note: what fold change (FC) did Cc1cn([C@H]2C[C@H](N=[N+]=[N-])[C@@H](CO)O2)c(=O)[nH]c1=O [ZIDOVUDINE] show?
Ans: 0.2

* * *

Test system: Human immunodeficiency virus 1
Assay: Antiviral activity against HIV1 NL4-3 harboring reverse transcriptase V108I, E138K mutant infected in human SupT1 cells derived from 9 viral passages with lersivirine assessed as inhibition of viral replication after 21 days relative to drug sensitive HIV1 NL4-3
Assay type: functional, SUP-T1
readout_kind: fold change (FC)
Please reply with the number alone, leaving off any unit.

These solved cases illustrate the format of a correct answer.
item_smiles: CC(C)Nc1cccnc1N1CCN(C(=O)c2cc3cc(NS(C)(=O)=O)ccc3[nH]2)CC1
fold change (FC): 1.5

item_smiles: Cc1ccnc2c1NC(=O)c1cccnc1N2C1CC1
fold change (FC): 0.9

item_smiles: CCc1nn(CCO)c(CC)c1Oc1cc(C#N)cc(C#N)c1
fold change (FC): 14

Continue with the next compound.
Q: Bench note: what fold change (FC) did Cc1cn([C@H]2C[C@H](N=[N+]=[N-])[C@@H](CO)O2)c(=O)[nH]c1=O show?
Ans: 0.4

* * *

This listing pairs molecules with measured fold change (FC).
System: Human immunodeficiency virus 1
Assay: Antiviral activity against HIV1 NL4-3 harboring reverse transcriptase V108I, E138K, F227F/L mutant infected in human SupT1 cells derived from 11 viral passages with lersivirine assessed as inhibition of viral replication after 21 days relative to drug sensitive HIV1 NL4-3
Format: functional, SUP-T1
Hey, just send me the number, nothing else.

item_smiles: Cc1cn([C@H]2C[C@H](N=[N+]=[N-])[C@@H](CO)O2)c(=O)[nH]c1=O
system_under_test: Human immunodeficiency virus 1
value_observed: 0.6

Q: Recorded fold change (FC) of CCc1nn(CCO)c(CC)c1Oc1cc(C#N)cc(C#N)c1 , please.
Ans: 143

Q: What measured fold change (FC) goes with Cc1ccnc2c1NC(=O)c1cccnc1N2C1CC1 ?
Ans: 12.2

Q: Can you look up the measured fold change (FC) of CC(C)Nc1cccnc1N1CCN(C(=O)c2cc3cc(NS(C)(=O)=O)ccc3[nH]2)CC1 for me?
Ans: 1.8

* * *

Biological target: Human immunodeficiency virus type 1 reverse transcriptase (Human immunodeficiency virus 1)
readout_kind: pKi
Reminder that pKi is minus the log10 of a molar concentration.

Q: # lookup: pKi of CCc1nn(CCO)c(CC)c1Oc1cc(C#N)cc(C#N)c1 [LERSIVIRINE]
Ans: 6.93
